Reported values of glycan array binding signal (z-score) for individual entries
biological target: GalNAc(a1-3)Gal; test: glycan array binding signal (z-score within array); higher = stronger binding; conditions: glycan notation: IUPAC condensed, linker removed
The full list was thinned out, with the strongest signals kept by preference.
Please respond with just the number, no unit label.

Cohesin-hDCIR (Homo sapiens) (protein) LDDLDAVRIKVDTVNAKPGDTVRIPVRFSGIPSKGIANCDFVYSYDPNVLEIIEIEPGDIIVDPNPDKSFDTAVYPDRKIIVFLFAEDSGTGAYAITKDGVFATIVAKVKEGAPNGLSVIKFVEVGGFANNDLVEQKTQFFDGGANVGDTTEPATPTTPVTTPTTTDDLDAASQKYSQLLEKKTTKELVHTTLECVKKNMPVEETAWSCCPKNWKSFSSNCYFISTESASWQDSEKDCARMEAHLLVINTQEEQDFIFQNLQEESAYFVGLSDPEGQRHWQWVDQTPYNESSTFWHPREPSDPNERCVVLNFRKSPKRWGWNDVNCLGPQRSVCEMMKIHLHHHHHH : 1.17
HPA (Helix pomatia), Q575S3 (protein) MWAHLTGLLLICALSLSAAQRAQTGEIDCGSDSSWPKDPSDNPNRDNTREIVKHVTFSPQFCREPKVILSVTTLDAEHTKNLRYEARLKSVSPSGLSASCYSWHDGTIYRMKLSWLAVED : 4.18
OS9 (Arabidopsis thaliana) (protein) MRGSHHHHHHGMASMTGGQQMGRDLYDDDDKSRLQIFPAHLVGTFSRNNREPKYKIEFLPEDSPFHPGDNLESMVMLDKHGNRFLCYLPKEEKATSGWTSSQQNISTVMMETQQLVKLKTPDELLQPLSEKCLFRQEGWWSYEFCHQKYVRQLHVEDENKIVQEFFLGTFDPEATAAFNQTVSDASTDASQRYHSHVYTNGTTCDLTGSPREVEVRFVCAETRAMVTSITELSTCKYALTVQCPTLCKHPLFQLEKPVSHTIHCNAIPVEEDATRNKEEQAVDESPKMIADS : -0.979
Adiponectin (Rattus norvegicus), Q8K3R4 (protein) MLLLQALLFLLILPSHEGITATEGPGALVPPPKETCAGWMAGIPGYPGHNGIPGRDGRDGTPGEKGEKGDAGVLGPKGDPGDAGMTGAEGPRGFPGTPGRKGEPGEAAYMYHSAFSVGLETRVTVPNVPIRFTKIFYNQQNHYDGSTGKFHCNIPGLYYFSYHITVYMKDVKVSLFKKDKAVLFTYDQYQEKNVDQASGSMLLHLEVGDQVWLQVYGEGDNNGLYADNVNDSTFTGFLLYHDTN : 2.96
pilr alpha (protein) MLYGVTQPKHLSASMGGSVEIPFSFYYPWELATAPDVRISWRRGHFHRQSFYSTRPPSIHKDYVNRLFLNWTEGQKSGFLRISNLQKQDQSVYFCRVELDTRSSGRQQWQSIEGTKLSIT : 0.654
Gal 2 (Homo sapiens), P05162 (protein) MTGELEVKNMDMKPGSTLKITGSIADGTDGFVINLGQGTDKLNLHFNPRFSESTIVCNSLDGSNWGQEQREDHLCFSPGSEVKFTVTFESDKFKVKLPDGHELTFPNRLGHSHLSYLSVRGGFNMSSFKLKE : -0.281

Ask: Please report the recorded glycan array binding signal (z-score) for ABA (Agaricus bisporus), Q00022 (protein) MTYTISIRVYQTTPKGFFRPVERTNWKYANGGTWDEVRGEYVLTMGGSGTSGSLRFVSSDTDESFVATFGVHNYKRWCDIVTNLTNEQTALVINQEYYGVPIRDQARENQLTSYNVANAKGRRFAIEYTVTEGDNLKANLIIG .
Reply: -0.234

Ask: Repeat with MGL2 (Mus musculus), Q8JZN1 (protein) MTMRYENFQNLEREEKNQEMRNGDKKGGMESPKFALIPSQSFLWRILSWTHLLLFSLGLSLLLLVVISVIGSQNSQLRRDLGTLRAILDNTTSKIKAEFQSLDSRADNFEKGISSLKVDVEDHRQELQAGRDLSQKVTSLESTLEKREQALKTDLSDLTDHVQQLETDLKALTCQLANLKNNGSEVACCPLHWTEHEGSCYWFSESEKSWPEADKYCRLENSHLVVVNSLEEQNFLQNRLANVLSWMGLTDQNGPWRWVDGTDFDKGFKNWRPLQPDNWHGHMLGGGEDCAHFSYDGRWNDDVCQRHYHWICETELGKASSAHSPQLIASVP
Reply: 1.48

Ask: Next entry: SLR2P2A3 (Tachypleus tridentatus), TAL2_TACTR (protein) MEKGTPPTHDSDNWMGRAKKIGNGGWNQFQFLFFDPNGYLYAVSKDKLYKASPPQSDTDNWIARATEIGSGGWSGSKFLFFHPNGYLYAVHGQRLYKALPPVSNQD
Reply: 6.13

Ask: Another binder to check: HMGB1 (Homo sapiens), P09429 (protein) MGKGDPKKPRGKMSSYAFFVQTCREEHKKKHPDASVNFSEFSKKCSERWKTMSAKEKGKFEDMAKADKARYEREMKTYIPPKGETKKKFKDPNAPKRPPSAFFLFCSEYRPKIKGEHPGLSIGDVAKKLGEMWNNTAADDKQPYEKKAAKLKEKYEKDIAAYRAKGKPDAAKKGVVKAEKSKKKKEEEEDEEDEEDEEEEEDEEDEDEEEDDDDE
Reply: -0.403

Ask: Next: OS9-MRH (Homo sapiens), Q13438 (protein) IPELLSPMRDAPCLLKTKDWWTYEFCYGRHIQQYHMEDSEIKGEVLYLGYYQSAFDWDDETAKASKQHRLKRYHSQTYGNGSKCDLNGRPREAEVRFLCDEGAGISGDYIDRVDEPLSCSYVLTIRTPRLCPHPLLRPPPSAAPQAI
Reply: 2.81

Ask: Follow-up item: LysMD3 (Homo sapiens), Q7Z3D4 (protein) MAGRHQNRSFPLPGVQSSGQVHAFGNCSDSDILEEDAEVYELRSRGKEKVRRSTSRDRLDDIIVLTKDIQEGDTLNAIALQYCCTVADIKRVNNLISDQDFFALRSIKIPVKKFSSLTETLCPPKGRQTSRHSSVQYSSEQQEILPANDSLAYSDSAGSFLKEVDRDIEQIVKCTDNKRENLNEVVSALTAQQMRFEPDNKNTQRKDPYYGADWGIG
Reply: 0.335
